- assay protocol: in vitro
- Design: species or system HB2, HEK293
- condition details: human, ccd841 cells
property measured: viability at 48 h, 10 µM (%)
Answers are plain numbers, in %.

Reference set, count: 3
C=CC(=O)NC(O)C(Cl)(Cl)Cl (stereo not shown) [PCM-0102963]    89.7
O=C(CCl)N1CCN(S(=O)(=O)c2ccccc2)CC1 [PCM-0102468]    54.9
Cc1c(C#N)c(NC(=O)CCl)n(-c2ccc(F)cc2)c1C [PCM-0102099]    53.9

Please look at the items below and tell me viability at 48 h, 10 µM for each one, in order.
1. C=CC(=O)N1CC(C)(C)C1c1cccs1 (stereo not shown) [PCM-0102611]
2. Cc1ccc(CNC(=O)CCl)cc1 [PCM-0102660]
3. O=C(Nc1ccccc1)NN(C(=O)CCl)c1ccccc1 [PCM-0102957]
4. C=CC(=O)Nc1nc(C)cc(C)n1 [PCM-0102547]
5. C=CC(=O)N1CCC(n2ncc3ccccc32)C1 (stereo not shown) [PCM-0102966]
6. O=C(CCl)NC(=O)c1ccccc1Cl [PCM-0102422]

Outgoing:
1. 95.8
2. 80.3
3. 1.1
4. 100
5. 95.1
6. 110

Parameters: items (list). Returns: viability at 48 h, 10 µM for each item.
1. O=C(CCl)Nc1cc2[nH]c(=O)[nH]c2cc1Br [PCM-0102388]
2. C=CC(=O)NC1(C#N)CCOC1 (stereo not shown) [PCM-0103049]

Outgoing:
1: 38.6; 2: 95.7

For each of the compounds below, state viability at 48 h, 10 µM.
1. C=CC(=O)N1CCOCC1c1cccn1C (stereo not shown) [PCM-0102721]
2. CC1CCC2(CC1)NC(=O)N(NC(=O)CCl)C2=O (stereo not shown) [PCM-0102666]
3. Cl.O=C(CCl)NCc1cccnc1 [PCM-0102497]
4. O=C(CCl)N1CCCC1c1ccc2c(c1)OCCCO2 (stereo not shown) [PCM-0102512]
5. O=C(CCl)Nc1cccc(C(F)(F)F)c1 [PCM-0102290]

Outgoing:
92.8
79.9
90.2
19.7
40

Dear colleague, could you please provide viability at 48 h, 10 µM for the compounds listed below?
1. C=CC(=O)NCC1CCCc2sc(C)nc21 (stereo not shown) [PCM-0102952]
2. O=C(CCl)Nc1ccc(I)cc1 [PCM-0102278]
3. CN(C)C(=O)CNC(=O)CCl [PCM-0102365]
4. C=CC(=O)N1CCC(CS(C)(=O)=O)CC1 [PCM-0102651]
5. CN(CC1CC1)C(=O)CCl [PCM-0102714]
6. C=CC(=O)N1CCC(n2cccn2)CC1 [PCM-0102555]
7. Cl.O=C(CCl)N1CCN(CC(=O)N2CCOCC2)CC1 [PCM-0102133]

Outgoing:
1. 114
2. 57.1
3. 100
4. 108
5. 84.8
6. 104
7. 94.8

Field: viability at 48 h, 10 µM. Fill in for each record below.
1. CC(NC(=O)CCl)C1CC2CCC1C2 (stereo not shown) [PCM-0102572]
2. Cc1ccsc1CNC(=O)CCl [PCM-0103075]

Outgoing:
1: 91.1; 2: 76.7
